Entry source: paper PMC9482650

Target: T1, SNTB1, Q13884
T1 sequence (Q13884 107-205, limits assumed, looked up): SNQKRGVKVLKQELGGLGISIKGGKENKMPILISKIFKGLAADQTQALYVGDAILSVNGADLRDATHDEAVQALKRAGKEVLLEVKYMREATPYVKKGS
Assay: holdup assay
Parameters: key: below the threshold = too weak to quantify, mostly under pKd 3.1 to 4
Settings: plain residues with an end cap or a label only (N-terminal biotin on a linker: ado-ado)
observed property: pKd

binder	pKd
FLVTEFNVML [DFNB31, Q9P202]	below the threshold
VKQYADVEGF [HNRNPK, P61978;P61978-2]	below the threshold
ELKAEDEVQI [DCHS2, Q6V1P9]	below the threshold
HDDYFYHDEL [RCN2, Q14257]	below the threshold

pKd reading for NTALVESEDL [PALLS, Q8WX93;Q8WX93-1] : below the threshold

pKd reading for HLSTRQGTCV [ATRNL1, Q5VV63] : 3.99

pKd reading for KIEDVEITLV [FCHSD2, O94868] : 3.95

pKd reading for PDSYHRRDFW [U2AF2, P26368] : below the threshold

pKd reading for DLLGGGSDSI [TNRC6B, Q9UPQ9] : below the threshold
